- test.protocol: AUC (0 to infinity) in Sprague-Dawley rat at 10 mg/kg, po
- Format: ADME, organism-based
- Parameters: time infinity, dose 10 mg/kg, route po
- settings: in vivo
observable: AUC(0-inf)

[
  {
    "smiles.code": "COc1cc(OC)c2c(=O)[nH]c(-c3cccc(Cc4n[nH]c(=O)c5ccccc45)c3)nc2c1",
    "endpoint.result": "1530 ng·h/mL"
  }
]

---

- target.or.system: Poly [ADP-ribose] polymerase 1 (Homo sapiens)
- Sequence (P09874 whole entry): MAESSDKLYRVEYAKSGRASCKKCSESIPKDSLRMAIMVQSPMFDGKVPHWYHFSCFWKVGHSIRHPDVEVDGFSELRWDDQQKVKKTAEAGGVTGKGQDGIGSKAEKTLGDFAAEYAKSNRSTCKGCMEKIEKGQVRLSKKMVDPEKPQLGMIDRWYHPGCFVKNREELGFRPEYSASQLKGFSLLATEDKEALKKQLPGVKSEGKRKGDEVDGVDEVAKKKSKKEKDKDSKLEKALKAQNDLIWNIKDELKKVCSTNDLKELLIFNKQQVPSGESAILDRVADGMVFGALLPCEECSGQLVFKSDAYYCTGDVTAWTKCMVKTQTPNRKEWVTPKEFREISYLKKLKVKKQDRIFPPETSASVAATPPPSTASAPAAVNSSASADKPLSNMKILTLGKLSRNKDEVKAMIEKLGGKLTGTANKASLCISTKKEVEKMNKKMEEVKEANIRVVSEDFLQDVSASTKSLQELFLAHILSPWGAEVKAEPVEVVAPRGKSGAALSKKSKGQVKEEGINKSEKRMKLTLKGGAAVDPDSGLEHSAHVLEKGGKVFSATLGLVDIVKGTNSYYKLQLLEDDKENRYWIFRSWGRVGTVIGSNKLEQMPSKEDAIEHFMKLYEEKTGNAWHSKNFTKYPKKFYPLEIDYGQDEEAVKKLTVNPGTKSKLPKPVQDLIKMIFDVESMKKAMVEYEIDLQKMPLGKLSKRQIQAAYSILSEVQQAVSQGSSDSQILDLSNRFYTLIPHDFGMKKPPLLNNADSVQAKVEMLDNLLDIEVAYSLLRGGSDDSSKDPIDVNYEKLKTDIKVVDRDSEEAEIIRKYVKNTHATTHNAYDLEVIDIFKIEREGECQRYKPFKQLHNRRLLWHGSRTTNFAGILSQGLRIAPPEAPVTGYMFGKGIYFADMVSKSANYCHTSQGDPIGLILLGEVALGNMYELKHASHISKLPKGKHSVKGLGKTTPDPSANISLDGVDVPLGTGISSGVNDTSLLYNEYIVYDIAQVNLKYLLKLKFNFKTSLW
- test.protocol: Inhibition of PARP1 (unknown origin) using NAD+ as substrate incubated for 60 mins by ELISA
pIC50: −log10 of the molar value.
observable: pIC50

[
  {
    "smiles.code": "COc1cc(OC)c2c(=O)[nH]c(-c3cc(C)c(OCCOc4ccccc4C(N)=O)c(C)c3)nc2c1",
    "target.or.system": "Poly [ADP-ribose] polymerase 1 (Homo sapiens)",
    "observable": "pIC50",
    "endpoint.result": 8.34
  }
]
